The entries below are paired with their reported growth.
- Test system: SK-MEL-28 melanoma
- test: NCI-60 one-dose screen, 48 h (100 = growth as untreated, 0 = no growth, -100 = all killed)
- settings: 10 µM unless noted
Compounds without any hit were thinned out: in the full panel of roughly 83,000, 20% have a hit. Calls of active or inactive are those of the source. Rule for the calls: active = growth percent below 10; inactive = the rest.

>>> recorded_value("CN1C(=O)N(C)C2Nn3c(s/c(=C\\c4ccccn4)c3=O)=NC21 (configuration not stated)")
"104% (inactive)"

# get_value(readout='growth', item= "CC1=CC(=O)CC(C)(C)[C@@]1(O)/C=C/C(C)=C\C(=O)O" )
-34.6% (active)

Which measured growth value corresponds to "Cc1ccc(NC(=O)c2ccc(CN3CCN(C)CC3)c(I)c2)cc1Oc1ccc(-c2[nH]nc3ncnc(N)c23)cc1" ?
-84.6% (active)

Can you look up the measured growth of "COc1cccc(/C=C/C(=O)c2ccc(NC(=O)COc3cccc4cccnc34)cc2)c1" for me?
104% (inactive)

Query (compound): "CC(=O)NC(C)(C)C(=O)N1CCC[C@H]1C(=O)NC(C)(C)C(=O)N[C@@H](C)C(=O)NC(C)(C)C(=O)NC(C)(C)C(=O)N[C@@H](CCC(N)=O)C(=O)NC(C)(C)C(=O)N[C@H](C(=O)NC(C)(C)C(=O)NCC(=O)N[C@@H](CC(C)C)C(=O)NC(C)(C)C(=O)N1CCC[C@H]1C(=O)N[C@H](C(=O)NC(C)(C)C(=O)NC(C)(C)C(=O)N[C@@H](CCC(N)=O)C(=O)N[C@@H](CCC(N)=O)C(=O)N[C@H](CO)Cc1ccccc1)C(C)C)C(C)C" ; field requested: growth
32.1% [4.25 µM] (inactive)

Recorded growth for "N#Cc1c(NC(=O)c2ccc(F)c(Cl)c2)sc2c1CCC(=O)C2" , please?
-66.9% (active)

Sample "O=c1oc2ccc(-c3ccc(F)cc3F)cc2c(=O)n1-c1ccc(F)c(F)c1" — what was its growth?
19.9% (inactive)
